Literature-derived IC50 for TYRO3 (Homo sapiens, UniProt Q06418) follows.

Tell me the measured IC50 of Cc1nccn1CCNc1ncc2c(OC3CCNCC3)ncc([C@H]3CC[C@H](O)CC3)c2n1 , please.
≤ 100 nM

Tell me the measured IC50 of CCc1cc(Nc2ncc3c(OC4CCNCC4)ncc([C@H]4CC[C@H](O)CC4)c3n2)ccc1Cl , please.
≤ 100 nM

Tell me the measured IC50 of NC(=O)c1ccc(-c2n[nH]c3ncc(-c4ccc5c(c4)CCC(N4CCCC4)CC5)cc23)cc1 (stereo not shown) , please.
< 100 nM

Tell me the measured IC50 of Cc1c(CC#N)cc(C(=O)Nc2ccc(-c3cc(C4CCN(C(=O)C(C)C)CC4)n4ncnc(N)c34)cc2)c(=O)n1-c1ccccn1 , please.
> 100 nM

Tell me the measured IC50 of COC[C@H](C)Nc1ncc2c(O[C@H]3CCOC3)ncc([C@H]3CC[C@H](O)CC3)c2n1 , please.
100 to 1000 nM

Tell me the measured IC50 of CCOc1ncc(CC2CCN(C(=O)OC(C)(C)C)CC2)c2nc(N[C@@H](C)CC)ncc12 , please.
1000 to 10000 nM

Tell me the measured IC50 of COc1cc2nccc(Oc3ccc(NC(=O)c4nn(C5CC5)cc(-c5ccc(F)cc5)c4=O)nc3)c2cc1OC , please.
7 nM
